Values were extracted from patent US20080318954A1.

target: CDK2/cyclin A (Homo sapiens); construct: His6 (N); made in house; host or cells: Sf9 insect cells (baculovirus); test: CDK/cyclin kinase assay, CDK2/cyclin A; type: biochemical; conditions: primary screening at 1 μM
This listing pairs molecules with measured inhibition at 1 µM.

Examples from the recorded data:
MOLECULE	MEASUREMENT_NAME	EXPERIMENTAL_VALUE
Cc1nc(-c2ccnc(Nc3ccc(Cl)c(C(F)(F)F)c3)n2)sc1C [Compound XI]	inhibition at 1 µM	< 50%
Cc1sc(-c2ccnc(Nc3ccc(Cl)nc3)n2)nc1O [XXV]	inhibition at 1 µM	< 50%

// next entry
# input # return recorded inhibition at 1 µM for entry Cc1nc(-c2ccnc(Nc3cccc(C(F)(F)F)c3)n2)sc1C [Compound X]
# output < 50%

---

target: CDK7/cyclin H (Homo sapiens, UniProt P50613); construct: His6 (N); experiment: CDK7/cyclin H inhibition constant
Sequence (P50613 whole entry, species assumed): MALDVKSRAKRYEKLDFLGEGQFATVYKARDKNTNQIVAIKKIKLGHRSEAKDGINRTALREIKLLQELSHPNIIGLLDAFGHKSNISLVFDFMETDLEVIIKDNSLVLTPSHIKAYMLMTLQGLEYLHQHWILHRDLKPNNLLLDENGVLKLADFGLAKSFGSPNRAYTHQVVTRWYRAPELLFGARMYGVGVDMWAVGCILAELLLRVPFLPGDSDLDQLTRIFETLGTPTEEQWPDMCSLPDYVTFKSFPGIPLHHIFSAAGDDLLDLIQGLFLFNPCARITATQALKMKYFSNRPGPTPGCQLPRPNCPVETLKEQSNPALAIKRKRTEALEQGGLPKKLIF
Sequence (P51946 whole entry partner, species assumed): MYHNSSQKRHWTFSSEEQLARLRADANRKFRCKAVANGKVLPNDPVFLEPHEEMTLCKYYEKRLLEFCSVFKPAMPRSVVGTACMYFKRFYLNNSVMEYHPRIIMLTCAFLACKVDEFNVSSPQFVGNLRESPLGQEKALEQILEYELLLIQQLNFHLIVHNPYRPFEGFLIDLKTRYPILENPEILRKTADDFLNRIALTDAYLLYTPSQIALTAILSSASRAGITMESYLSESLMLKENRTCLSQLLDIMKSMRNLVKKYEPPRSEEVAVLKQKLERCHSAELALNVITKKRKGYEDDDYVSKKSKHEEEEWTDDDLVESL
MEASUREMENT_NAME: Ki

# input # return recorded Ki for entry Clc1ccc(Nc2nccc(-c3nccs3)n2)cn1
# output > 50 µM

---

biological target: T1, CDK9/cyclin T1 (Homo sapiens, UniProt P50750); test: CDK9/cyclin T1 inhibition constant
T1 construct: His6 (N)
T1 sequence (P50750 whole entry, species assumed): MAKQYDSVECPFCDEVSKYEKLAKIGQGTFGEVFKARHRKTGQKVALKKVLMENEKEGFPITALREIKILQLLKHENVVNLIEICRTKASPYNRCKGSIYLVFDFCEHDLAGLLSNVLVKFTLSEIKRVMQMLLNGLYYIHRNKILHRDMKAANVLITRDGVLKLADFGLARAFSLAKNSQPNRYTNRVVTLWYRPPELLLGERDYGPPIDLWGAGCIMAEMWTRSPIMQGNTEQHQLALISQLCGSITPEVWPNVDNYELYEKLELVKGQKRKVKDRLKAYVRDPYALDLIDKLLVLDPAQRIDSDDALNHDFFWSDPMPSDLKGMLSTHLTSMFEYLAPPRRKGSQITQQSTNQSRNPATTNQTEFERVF
T1 sequence (O60563 whole entry partner, species assumed): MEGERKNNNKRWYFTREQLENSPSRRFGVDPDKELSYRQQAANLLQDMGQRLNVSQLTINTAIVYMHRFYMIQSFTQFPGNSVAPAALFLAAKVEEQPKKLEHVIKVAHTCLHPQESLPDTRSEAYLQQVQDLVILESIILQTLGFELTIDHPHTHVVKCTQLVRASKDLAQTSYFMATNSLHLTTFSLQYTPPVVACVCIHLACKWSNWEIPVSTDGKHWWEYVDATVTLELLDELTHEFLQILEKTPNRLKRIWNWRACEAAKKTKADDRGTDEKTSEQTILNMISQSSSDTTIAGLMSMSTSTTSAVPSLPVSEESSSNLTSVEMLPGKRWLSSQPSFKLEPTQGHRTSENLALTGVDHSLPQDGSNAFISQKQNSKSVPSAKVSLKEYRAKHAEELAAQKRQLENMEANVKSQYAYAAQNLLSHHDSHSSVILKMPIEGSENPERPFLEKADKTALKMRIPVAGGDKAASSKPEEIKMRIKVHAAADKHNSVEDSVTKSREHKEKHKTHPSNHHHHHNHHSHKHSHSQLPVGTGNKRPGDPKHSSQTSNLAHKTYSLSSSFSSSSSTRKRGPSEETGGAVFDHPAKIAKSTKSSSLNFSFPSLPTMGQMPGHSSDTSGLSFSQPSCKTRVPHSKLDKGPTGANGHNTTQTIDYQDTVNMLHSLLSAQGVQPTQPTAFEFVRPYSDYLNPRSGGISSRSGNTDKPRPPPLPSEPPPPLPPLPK
MEASUREMENT_NAME: pKi
Lab note: report pKi as minus log10 of the concentration in molar units, number only.

# input GET pKi where system = T1, CDK9/cyclin T1 (Homo sapiens, UniProt P50750) and item = Clc1ccc(Nc2nccc(-c3nccs3)n2)cn1
# output 6.30

---

This listing pairs compounds with measured IC50.
Target: T1, CDK2/cyclin A (Homo sapiens, UniProt P24941)
T1 construct: His6 (N)
Test: CDK/cyclin kinase assay, CDK2/cyclin A
Conditions: read-out: Kinase inhibition IC50 CDK2/A
Excerpt: CDK4/cyclin D1, CDK1/cyclin B, CDK2/cyclin E, CDK2/cyclin A, CDK9/cyclin T1 and CDK7/cyclin H, all with a His6 tag on the N-terminus, were expressed in Sf9 insect cells using an appropriate baculovirus construct. Sf9 culture (1.6×10^6 cells/mL) was infected (MOI of 3) for two days. The cells were harvested by low speed centrifugation and the protein was purified from the insect cell pellet by metal affinity chromatography. […]

Examples from the recorded data:
COMPOUND	IC50
COc1ccc(Nc2nccc(-c3nccs3)n2)cn1 [XIII]	> 100 µM
CCOC(=O)c1sc(-c2ccnc(Nc3ccc(Cl)cc3)n2)nc1O [VII]	> 10 µM
Cc1nc(-c2ccnc(Nc3ccc(Cl)nc3)n2)sc1C [XVII]	> 10 µM
Clc1ccc(Nc2nccc(-c3nccs3)n2)cn1 [Compound XIV]	> 50 µM

// next entry
# input GET IC50 where system = T1, CDK2/cyclin A (Homo sapiens, UniProt P24941) and item = COc1ccc(Nc2nccc(-c3nc(C)c(C)s3)n2)cn1 [XVI]
# output > 10 µM

---

biological target: CDK4/cyclin D1 (Homo sapiens); construct: His6 (N); Cyclin D1: E. coli, Sf9; assay: CDK/cyclin kinase assay, CDK4/cyclin D1; settings: read-out: Kinase inhibition IC50 CDK4/D1
Sequence (P11802 whole entry): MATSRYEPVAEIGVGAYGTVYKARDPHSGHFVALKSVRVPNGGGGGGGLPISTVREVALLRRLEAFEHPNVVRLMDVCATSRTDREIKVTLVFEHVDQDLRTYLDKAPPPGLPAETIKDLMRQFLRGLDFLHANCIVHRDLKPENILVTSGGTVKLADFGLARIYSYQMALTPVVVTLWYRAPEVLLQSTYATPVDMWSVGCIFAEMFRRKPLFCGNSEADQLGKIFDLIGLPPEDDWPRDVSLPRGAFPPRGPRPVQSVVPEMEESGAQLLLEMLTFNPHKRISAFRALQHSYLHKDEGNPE
Sequence (P24385 whole entry partner): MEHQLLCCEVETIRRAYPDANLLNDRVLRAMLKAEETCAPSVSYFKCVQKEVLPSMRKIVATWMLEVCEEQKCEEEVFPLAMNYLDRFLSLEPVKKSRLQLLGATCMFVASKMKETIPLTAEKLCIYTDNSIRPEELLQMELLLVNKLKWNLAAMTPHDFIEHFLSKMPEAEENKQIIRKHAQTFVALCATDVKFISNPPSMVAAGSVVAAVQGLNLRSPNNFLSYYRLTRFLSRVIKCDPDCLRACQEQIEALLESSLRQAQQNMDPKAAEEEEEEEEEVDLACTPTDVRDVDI
This listing pairs compounds with measured IC50.

CCOC(=O)c1sc(-c2ccnc(Nc3ccc(Cl)cc3)n2)nc1O > 10 µM
COc1ccc(Nc2nccc(-c3nccs3)n2)cn1 > 100 µM
Cc1nc(-c2ccnc(Nc3ccc(Cl)nc3)n2)sc1C > 10 µM

# input GET IC50 where system = CDK4/cyclin D1 (Homo sapiens) and item = Clc1ccc(Nc2nccc(-c3nccs3)n2)cn1
# output > 100 µM

# input GET IC50 where system = CDK4/cyclin D1 (Homo sapiens) and item = CCOC(=O)c1sc(-c2ccnc(Nc3ccc(Cl)nc3)n2)nc1O
# output 0.96 µM

# input GET IC50 where system = CDK4/cyclin D1 (Homo sapiens) and item = COc1ccc(Nc2nccc(-c3nc(C)c(C)s3)n2)cn1
# output > 10 µM

# input GET IC50 where system = CDK4/cyclin D1 (Homo sapiens) and item = OCCc1sc(-c2ccnc(Nc3ccc(Cl)nc3)n2)nc1O
# output 2.08 µM
